settings: in methanol, 278.15 K
metric name: solubility (mole fraction)

I. O=C(O)c1ccccc1O
II. NC(=O)c1ccccc1O
Data request: Pick one, I or II : lowest reported solubility (mole fraction). Answer by quoting the chosen item's label.
Data returned: II
(II: 0.0233, I: 0.09)

----------
details: in methanol, 263.15 K
metric name: solubility (mole fraction)

A. NC(=O)c1ccccc1O
B. O=C(O)c1ccccc1O
Data request: // which entry has the larger solubility (mole fraction) value, A or B ? Answer by quoting the chosen item's label.
Data returned: B
(B: 0.0699, A: 0.0157)

----------
conditions: in acetone, 278.15 K
metric name: solubility (mole fraction)

I. NC(=O)c1ccccc1O
II. O=C(O)c1ccccc1O
Data request: Pick one, I or II : lowest reported solubility (mole fraction). Answer by quoting the chosen item's label.
Data returned: I

----------
conditions: in ethyl acetate, 283.15 K
metric name: solubility (mole fraction)

1. O=C(O)c1ccccc1O
2. NC(=O)c1ccccc1O
Data request: // which entry has the larger solubility (mole fraction) value, 1 or 2 ? Answer by quoting the chosen item's label.
Data returned: 1

----------
conditions: in acetone, 273.15 K
metric name: solubility (mole fraction)

1. O=C(O)c1ccccc1O
2. NC(=O)c1ccccc1O
Data request: Pick one, 1 or 2 : lowest reported solubility (mole fraction). Answer by quoting the chosen item's label.
Data returned: 2

----------
conditions: in ethyl acetate, 278.15 K
metric name: solubility (mole fraction)

a. O=C(O)c1ccccc1O
b. NC(=O)c1ccccc1O
Data request: // which entry has the larger solubility (mole fraction) value, a or b ? Answer by quoting the chosen item's label.
Data returned: a
(a: 0.099, b: 0.0497)

----------
conditions: in acetonitrile, 263.15 K
metric name: solubility (mole fraction)

smiles code | solubility (mole fraction)
O=C(O)c1ccccc1O | 0.01
NC(=O)c1ccccc1O | 0.0108

----------
details: in acetone, 268.15 K
metric name: solubility (mole fraction)

a. NC(=O)c1ccccc1O
b. O=C(O)c1ccccc1O
Data request: Pick one, a or b : lowest reported solubility (mole fraction). Answer by quoting the chosen item's label.
Data returned: a

----------
conditions: in acetonitrile, 243.15 K
metric name: solubility (mole fraction)

smiles code | experimental result
NC(=O)c1ccccc1O | 0.005
O=C(O)c1ccccc1O | 0.0052

----------
settings: in acetonitrile, 283.15 K
metric name: solubility (mole fraction)

smiles code | solubility (mole fraction)
NC(=O)c1ccccc1O | 0.0199
O=C(O)c1ccccc1O | 0.0185

----------
settings: in methanol, 283.15 K
metric name: solubility (mole fraction)

I. NC(=O)c1ccccc1O
II. O=C(O)c1ccccc1O
Data request: Pick one, I or II : lowest reported solubility (mole fraction). Answer by quoting the chosen item's label.
Data returned: I

----------
details: in ethyl acetate, 263.15 K
metric name: solubility (mole fraction)

1. O=C(O)c1ccccc1O
2. NC(=O)c1ccccc1O
Data request: // which entry has the larger solubility (mole fraction) value, 1 or 2 ? Answer by quoting the chosen item's label.
Data returned: 1

----------
conditions: in ethyl acetate, 273.15 K
metric name: solubility (mole fraction)

P. NC(=O)c1ccccc1O
Q. O=C(O)c1ccccc1O
Data request: // which entry has the larger solubility (mole fraction) value, P or Q ? Answer by quoting the chosen item's label.
Data returned: Q

----------
details: in ethyl acetate, 258.15 K
metric name: solubility (mole fraction)

P. O=C(O)c1ccccc1O
Q. NC(=O)c1ccccc1O
Data request: Pick one, P or Q : lowest reported solubility (mole fraction). Answer by quoting the chosen item's label.
Data returned: Q

----------
conditions: in methanol, 268.15 K
metric name: solubility (mole fraction)

P. NC(=O)c1ccccc1O
Q. O=C(O)c1ccccc1O
Data request: Pick one, P or Q : lowest reported solubility (mole fraction). Answer by quoting the chosen item's label.
Data returned: P
(P: 0.0181, Q: 0.075)

----------
details: in ethyl acetate, 253.15 K
metric name: solubility (mole fraction)

A. NC(=O)c1ccccc1O
B. O=C(O)c1ccccc1O
Data request: // which entry has the larger solubility (mole fraction) value, A or B ? Answer by quoting the chosen item's label.
Data returned: B
(B: 0.0554, A: 0.0305)

----------
conditions: in acetonitrile, 268.15 K
metric name: solubility (mole fraction)

smiles code | solubility (mole fraction)
NC(=O)c1ccccc1O | 0.012
O=C(O)c1ccccc1O | 0.012

----------
settings: in acetonitrile, 273.15 K
metric name: solubility (mole fraction)

smiles code | solubility (mole fraction)
NC(=O)c1ccccc1O | 0.0143
O=C(O)c1ccccc1O | 0.0141

----------
conditions: in acetone, 253.15 K
metric name: solubility (mole fraction)

A. NC(=O)c1ccccc1O
B. O=C(O)c1ccccc1O
Data request: Pick one, A or B : lowest reported solubility (mole fraction). Answer by quoting the chosen item's label.
Data returned: A
(A: 0.0592, B: 0.0913)

----------
details: in acetonitrile, 253.15 K
metric name: solubility (mole fraction)

smiles code | solubility (mole fraction)
O=C(O)c1ccccc1O | 0.0071
NC(=O)c1ccccc1O | 0.0071

Hello, the source for this data is BigSolDB 2.1, in case you need it.
